Target: human recombinant HDAC1 (Homo sapiens)
Construct: purchased Enzo Life Science BML-SE456
Sequence (Q13547 whole entry): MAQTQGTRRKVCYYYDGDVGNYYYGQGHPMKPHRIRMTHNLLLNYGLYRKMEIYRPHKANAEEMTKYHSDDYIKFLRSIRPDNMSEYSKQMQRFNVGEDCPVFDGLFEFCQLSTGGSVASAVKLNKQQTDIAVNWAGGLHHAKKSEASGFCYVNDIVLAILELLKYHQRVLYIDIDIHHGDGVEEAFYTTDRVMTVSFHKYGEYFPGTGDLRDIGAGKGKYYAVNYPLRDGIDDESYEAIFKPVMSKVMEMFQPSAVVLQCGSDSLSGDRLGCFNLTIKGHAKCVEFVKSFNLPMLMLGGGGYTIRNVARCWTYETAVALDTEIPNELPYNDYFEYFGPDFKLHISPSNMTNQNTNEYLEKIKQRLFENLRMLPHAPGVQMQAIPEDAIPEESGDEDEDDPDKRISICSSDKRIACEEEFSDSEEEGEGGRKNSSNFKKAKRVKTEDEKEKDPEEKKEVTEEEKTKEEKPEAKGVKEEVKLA
Protocol text: HDAC1 enzyme activity inhibition assay (HDAC Fluorimetric Drug Discovery Kit)
Assay type: biochemical
Measurement context: human recombinant HDAC1, Fluor de Lys substrate 10 μM, 30° C. 60 minutes
Each entry below carries its reported IC50.
# number only, unit µM dropped from output

Molecule	Target	U	Obs value
O=C(N1CC[C@H](F)C1)N(Cc1ccc(-c2nnc(C(F)F)o2)cc1F)c1ccc(F)c(Cl)c1 [Compound 21665]	human recombinant HDAC1 (Homo sapiens)	µM	19.1

Inquiry: Report IC50 for O=C(N1CCOCC1)N(Cc1ccc(-c2nnc(C(F)(F)F)o2)cc1F)c1ccc(F)cc1F [Compound 21859] please.
Reply text: 23.5

Inquiry: Repeat with O=C(N1CC[C@H](F)C1)N(Cc1ccc(-c2nnc(C(F)(F)F)o2)cc1F)c1ccc(F)c(Cl)c1 [Compound 21666]
Reply text: 20.5

Inquiry: Lookup CC(C)(C)CN1CCN(Cc2ccc(N(Cc3ccc(-c4nnc(C(F)(F)F)o4)cc3F)C(=O)N3CCS(=O)(=O)CC3)cc2)CC1 [Compound 21897]
Reply text: 68.1

Inquiry: Another: O=C(N1CCS(=O)(=O)CC1)N(Cc1ccc(-c2nnc(C(F)(F)F)o2)cc1)c1ccc(F)cc1 [Compound 21389]
Reply text: 6.36

Inquiry: Note, next up: CN(C)[C@H]1CCN(C(=O)N(Cc2ccc(-c3nnc(C(F)F)o3)cc2F)c2ccc(F)cc2Cl)C1 [Compound 21651]
Reply text: 49.2

Inquiry: Note, next up: O=C(N1CCOCC1)N(Cc1ccc(-c2nnc(C(F)F)o2)cc1F)c1cccc(F)c1 [Compound 21845]
Reply text: 62.3

Inquiry: // next record O=C(N1CCS(=O)(=O)CC1)N(Cc1ccc(-c2nnc(C(F)(F)F)o2)cc1)c1ccc(-c2ccc3c(c2)OCO3)cc1 [Compound 21493]
Reply text: 1.74

Inquiry: // query: CCN1CCN(C(=O)N(Cc2ccc(-c3nnc(C(F)F)o3)cn2)c2ccc(OC)cc2)CC1 [Compound 21894]
Reply text: 76.3

Inquiry: Request: CCN1CCN(C(=O)N(Cc2ccc(-c3nnc(C(F)(F)F)o3)cc2F)c2cccc(OC)c2)CC1 [Compound 21872]
Reply text: 9.43

Inquiry: Next up: O=C(N1CCOCC1)N(Cc1ccc(-c2nnc(C(F)(F)F)o2)cc1)c1ccccc1 [Compound 21249]
Reply text: 10

Inquiry: Moving on to O=C(N1CCS(=O)(=O)CC1)N(Cc1ccc(-c2nnc(C(F)(F)F)o2)cc1)c1ccc(-c2ccccc2)cc1 [Compound 21485]
Reply text: 4.42

Inquiry: # repeat for CCN1CCN(C(=O)N(Cc2ccc(-c3nnc(C(F)(F)F)o3)cc2)c2ccc(OC)cc2)CC1 [Compound 21874]
Reply text: 6.17

Inquiry: Quick one: CCN1CCN(C(=O)N(Cc2ccc(-c3nnc(C(F)F)o3)cc2F)c2ccc3cnn(C)c3c2)CC1 [Compound 21735]
Reply text: 19.1

Inquiry: Then what about the molecule CCN1CCN(C(=O)N(Cc2ccc(-c3nnc(C(F)F)o3)cc2)c2ccc(Cl)cc2)CC1 [Compound 21880] ?
Reply text: 44.4

Inquiry: Okay, and Cc1cccc(N(Cc2ccc(-c3nnc(C(F)(F)F)o3)cc2)C(=O)N2CCS(=O)(=O)CC2)c1 [Compound 21442] ?
Reply text: 8.73

Inquiry: Would you kindly repeat that for CCN1CCN(Cc2ccc(N(Cc3ccc(-c4nnc(C(F)F)o4)cc3F)C(=O)N3CCS(=O)(=O)CC3)cc2)CC1 [Compound 21899] ?
Reply text: 75.7
